Documented IC50 across a set of molecules
# study.system: HCV polymerase (NS5B570n-Con1) (Hepatitis C virus genotype 1b)
# Construct: contains a 21 amino acid deletion at the C-terminus relative to the full-length HCV polymerase; 6-histidine (N); made in house; host or cells: E. coli BL21 (DE) pLysS
# assay.method.text: HCV NS5B RNA polymerase activity assay
# Type: biochemical, HCV Con1 strain
# test.context: IC50 NS5B polymerase assay, Table I
# Method: The enzymatic activity of HCV polymerase (NS5B570n-Con1) was measured as the incorporation of radiolabeled nucleotide monophosphates into acid insoluble RNA products. […] The amount of light emitted from the scintillant was converted to counts per minute (CPM) on a Topcount® plate reader (Perkin-Elmer, Energy Range: Low, Efficiency Mode Normal, Count Time: 1 min, Background Subtract: none, Cross talk reduction: Off). Data was analyzed in Excel® (Microsoft®) and ActivityBase® (idbsg). […]
Give just the numeric value; nM need not be written.

Consider the reported IC50 for these molecules:
CNC(=O)c1c(-c2ccc(Oc3ccc(F)cc3)cc2)oc2cc(N(CCO)S(C)(=O)=O)c(C3CC3)cc12 [Compound I-32]	60
CNC(=O)c1c(-c2ccc(Oc3ccc(F)cc3)cc2)oc2cc(N(C3CCC(N)CC3)S(C)(=O)=O)c(C3CC3)cc12 (centres unmarked) [Compound I-98]	44
CNC(=O)c1c(-c2ccc(Oc3ccc(F)cc3)cc2)oc2cc(N(CC3CCOC3)S(C)(=O)=O)c(C3CC3)cc12 (centres unmarked) [Compound I-60]	115
CNC(=O)c1c(-c2ccc(Oc3ccc(F)cc3)cc2)oc2cc(C3CCCN3)c(OC)cc12 (centres unmarked) [Compound I-111]	933

Consider now this further molecule.
Exam item: Entry CCN(c1cc2oc(-c3ccc(Oc4ccccc4F)cc3)c(C(=O)NC)c2cc1OC)S(C)(=O)=O [Compound I-23] : reported IC50 = ?
Marked response: 52
